Data origin, for the record: patent US20190309059A1

target: his-labeled human IL-13 (immunogen A) (human) (UniProt P35225); assay: cell-based or functional assay
Collected VCAM-1 fluorescence intensity, HUVEC + IL-13 0.5 ng/mL + TNFα; antibody at 0.53 nM values appear next to each entry.

c70F10A10 (mouse-human chimeric IL-13 antibody) (antibody, V domains shown) VH: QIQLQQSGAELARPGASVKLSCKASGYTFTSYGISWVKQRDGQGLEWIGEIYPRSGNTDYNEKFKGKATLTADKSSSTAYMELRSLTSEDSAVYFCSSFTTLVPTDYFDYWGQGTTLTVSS VL: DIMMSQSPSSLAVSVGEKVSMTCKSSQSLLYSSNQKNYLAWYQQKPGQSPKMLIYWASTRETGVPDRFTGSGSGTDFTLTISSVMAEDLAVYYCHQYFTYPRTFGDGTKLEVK : 286
c29D9H8 (mouse-human chimeric IL-13 antibody) (antibody, V domains shown) VH: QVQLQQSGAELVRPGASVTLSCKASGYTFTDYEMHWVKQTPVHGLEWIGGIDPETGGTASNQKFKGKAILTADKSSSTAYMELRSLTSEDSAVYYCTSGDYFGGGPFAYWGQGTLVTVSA VL: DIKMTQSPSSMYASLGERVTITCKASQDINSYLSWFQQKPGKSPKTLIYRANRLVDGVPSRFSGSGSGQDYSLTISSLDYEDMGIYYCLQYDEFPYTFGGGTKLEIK : 265

Here's the next entry for you.
q: Please indicate VCAM-1 fluorescence intensity, HUVEC + IL-13 0.5 ng/mL + TNFα; antibody at 0.53 nM recorded for c28A2E11 (mouse-human chimeric IL-13 antibody) (antibody, V domains shown) VH: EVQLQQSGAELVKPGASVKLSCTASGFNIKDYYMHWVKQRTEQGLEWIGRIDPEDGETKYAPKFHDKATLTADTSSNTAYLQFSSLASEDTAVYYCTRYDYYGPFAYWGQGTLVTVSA VL: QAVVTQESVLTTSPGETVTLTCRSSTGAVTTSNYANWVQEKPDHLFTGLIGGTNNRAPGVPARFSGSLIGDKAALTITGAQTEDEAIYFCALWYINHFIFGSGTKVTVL
a: 227
